# Tested on: rat small-intestinal brush border membrane vesicles
# Assay Summary: Inhibitory effect on 33PO4 uptake into rat small-intestinal brush border membrane vesicles (rapid filtration method)
# Assay type: biochemical, Wistar female rat
# Run Conditions: 1 µM test compound; 33PO4 uptake into rat small-intestinal BBMVs, 60 seconds
Property Name: Rate of uptake inhibition (%) (1 µM)
Respond with the bare value in %.

CN1N(Cc2ccc(OCCCCCOC[C@H](O)CO)c(F)c2F)C(=O)C(C(=O)Nc2ccc(C(F)(F)F)cc2-c2ccc(C(F)(F)F)nc2)=C(O)C12CCCC2 [Example 388]: 15
C[C@]12CCCN1N(Cc1ccccc1F)C(=O)C(C(=O)Nc1ccc(C(F)(F)F)cc1-c1cc(C(F)(F)F)ncn1)=C2O [Example 207]: 73
C[C@]12CCCN1N(Cc1cccc(OC(F)F)c1)C(=O)C(C(=O)Nc1ccc(C(F)(F)F)cc1-c1ccc(C(F)(F)F)nc1)=C2O [Example 167]: 73
CCN1[C@@H](C(C)(C)C)C(O)=C(C(=O)Nc2cc(F)c(Br)c(F)c2)C(=O)N1Cc1cccc(F)c1F [Example 246]: 52
COC(C)(C)CN(C)CCOc1ccc(CN2C(=O)C(C(=O)Nc3ccc(C(F)(F)F)cc3-c3cc(C(F)(F)F)ncn3)=C(O)C3(CCC3)N2C)c(F)c1F [Example 350]: 45

Entry CSc1ncc(-c2cc(C(F)(F)F)ccc2NC(=O)C2=C(O)[C@@]3(C)CCCN3N(Cc3ccc(C#CCCCCC(=O)O)c(F)c3F)C2=O)cn1 [Example 118] has what Rate of uptake inhibition (%) (1 µM)?
81

Entry CN1N(Cc2ccc(OCCN3CCN(S(C)(=O)=O)CC3)c(F)c2F)C(=O)C(C(=O)Nc2ccc(C(F)(F)F)cc2-c2cc(C(F)(F)F)ncn2)=C(O)C12CCCC2 [Example 379] has what Rate of uptake inhibition (%) (1 µM)?
137

Entry C[C@]12CCCN1N(Cc1ccccc1Cl)C(=O)C(C(=O)Nc1ccc(C(F)(F)F)cc1-c1cc(C(F)(F)F)ncn1)=C2O [Example 180] has what Rate of uptake inhibition (%) (1 µM)?
75

Entry Cc1c(C#N)ncnc1-c1cc(C(F)(F)F)ccc1NC(=O)C1=C(O)C2(CCC2)N(C)N(Cc2ccc(OCCN3CCOCC3)c(F)c2F)C1=O [Example 283] has what Rate of uptake inhibition (%) (1 µM)?
45

Entry CN1N(Cc2ccc(OCCN3CCOCC3)c(F)c2F)C(=O)C(C(=O)Nc2ccc(C(F)(F)F)cc2-c2ccc(C(F)(F)F)nc2)=C(O)C12CCCC2 [Example 287] has what Rate of uptake inhibition (%) (1 µM)?
47

Entry CN1N(Cc2ccc(OCCN3CCOC(=O)C3)c(F)c2F)C(=O)C(C(=O)Nc2ccc(C(F)(F)F)cc2-c2cc(C(F)(F)F)ncn2)=C(O)C12CCC2 [Example 337] has what Rate of uptake inhibition (%) (1 µM)?
47

Entry C[C@]12CCCN1N(Cc1cccc(Cl)c1F)C(=O)C(C(=O)Nc1ccc(C(F)(F)F)cc1-c1cc(C(F)(F)F)ncn1)=C2O [Example 209] has what Rate of uptake inhibition (%) (1 µM)?
76

Entry C[C@]12CCCN1N(Cc1cccc(F)c1F)C(=O)C(C(=O)Nc1ccc(C(F)(F)F)cc1-c1ccc(C(F)(F)F)nc1Br)=C2O [Example 85] has what Rate of uptake inhibition (%) (1 µM)?
71

Entry CN1N(Cc2cccc(F)c2F)C(=O)C(C(=O)Nc2ccc(C(F)(F)F)cc2-c2cc(C(F)(F)F)ncn2)=C(O)C12CCCC2 [Example 260] has what Rate of uptake inhibition (%) (1 µM)?
70

Entry CN1N(Cc2ccc(OCCN3CCOCC3(C)C)c(F)c2F)C(=O)C(C(=O)Nc2ccc(C(F)(F)F)cc2-c2cc(C(F)(F)F)ncn2)=C(O)C12CCC2 [Example 341] has what Rate of uptake inhibition (%) (1 µM)?
64

Entry COCCOCCOc1ccc(CN2C(=O)C(C(=O)Nc3ccc(C(F)(F)F)cc3-c3cc(C(F)(F)F)ncn3)=C(O)C3(CCC3)N2C)c(F)c1F [Example 401] has what Rate of uptake inhibition (%) (1 µM)?
39

Entry Cc1c(C#N)ncnc1-c1cc(C(F)(F)F)ccc1NC(=O)C1=C(O)[C@H](C(C)(C)C)N(C)N(Cc2ccc(OCCN3CCOCC3)c(F)c2F)C1=O [Example 270] has what Rate of uptake inhibition (%) (1 µM)?
75

Entry CN1N(Cc2ccc(OCCCCCOC[C@H](O)CO)c(F)c2F)C(=O)C(C(=O)Nc2ccc(C(F)(F)F)cc2-c2ccc(C(F)(F)F)nc2)=C(O)C12CCC2 [Example 385] has what Rate of uptake inhibition (%) (1 µM)?
39

* * *

Reported Rate of uptake inhibition (%) (1 µM) by item:
# Test system: rat small-intestinal brush border membrane vesicles
# Assay Summary: Inhibitory effect on 33PO4 uptake into rat small-intestinal brush border membrane vesicles (rapid filtration method)
# Type: biochemical, Wistar female rat
# Run Conditions: 1 µM test compound; 33PO4 uptake into rat small-intestinal BBMVs, 60 seconds
Please answer using the number first and the unit second.

CN1N(Cc2ccc(C#CCN3CCOCC3)c(F)c2F)C(=O)C(C(=O)Nc2ccc(Cl)cc2-c2cc(C(F)(F)F)ncn2)=C(O)C1(C)C [Example 316]: 64%

Entry C[C@]12CCCN1N(Cc1c(F)cccc1Cl)C(=O)C(C(=O)Nc1ccc(C(F)(F)F)cc1-c1ccc(C(F)(F)F)nc1)=C2O [Example 204] has what Rate of uptake inhibition (%) (1 µM)?
87%

Entry CN1[C@@H](C(C)(C)C)C(O)=C(C(=O)Nc2ccc(Cl)cc2-c2cc(C#N)ncn2)C(=O)N1Cc1ccc(OCCN2CCOCC2)c(F)c1F [Example 272] has what Rate of uptake inhibition (%) (1 µM)?
43%

Entry C[C@]12CCCN1N(Cc1cccc(F)c1F)C(=O)C(C(=O)Nc1ccc(C(F)(F)F)cc1-c1cnc(Br)cn1)=C2O [Example 73] has what Rate of uptake inhibition (%) (1 µM)?
74%

Entry C[C@]12CCCN1N(Cc1cccc(F)c1F)C(=O)C(C(=O)Nc1ccc(C(F)(F)F)cc1-c1cnc(Cl)c(C#N)c1)=C2O [Example 68] has what Rate of uptake inhibition (%) (1 µM)?
84%

Entry CN1CCN(CCOc2ccc(CN3C(=O)C(C(=O)Nc4ccc(C(F)(F)F)cc4-c4cc(C(F)(F)F)ncn4)=C(O)C4(CCC4)N3C)c(F)c2F)CC1=O [Example 359] has what Rate of uptake inhibition (%) (1 µM)?
37%

Entry CN1CCC(Oc2ccc(CN3C(=O)C(C(=O)Nc4ccc(C(F)(F)F)cc4-c4cc(C(F)(F)F)ncn4)=C(O)C4(CCC4)N3C)c(F)c2F)CC1 [Example 411] has what Rate of uptake inhibition (%) (1 µM)?
32%

Entry Cc1cccc(CN2C(=O)C(C(=O)Nc3ccc(C(F)(F)F)cc3-c3cc(C(F)(F)F)ncn3)=C(O)[C@@]3(C)CCCN23)c1F [Example 215] has what Rate of uptake inhibition (%) (1 µM)?
86%

Entry COc1cccc(-c2cc(C(F)(F)F)ccc2NC(=O)C2=C(O)[C@@]3(C)CCCN3N(Cc3ccc(OC4CCOCC4)c(F)c3F)C2=O)c1OC [Example 158] has what Rate of uptake inhibition (%) (1 µM)?
84%

Entry C[C@@H]1COC[C@H](C)N1CCOc1ccc(CN2C(=O)C(C(=O)Nc3ccc(C(F)(F)F)cc3-c3cc(C(F)(F)F)ncn3)=C(O)C3(CCCC3)N2C)c(F)c1F [Example 370] has what Rate of uptake inhibition (%) (1 µM)?
41%

Entry Cc1nc(NC(=O)C2=C(O)C3(CCCC3)N(C)N(Cc3cccc(F)c3F)C2=O)ccc1Br [Example 262] has what Rate of uptake inhibition (%) (1 µM)?
43%

Entry CN1N(Cc2cccc(F)c2F)C(=O)C(C(=O)Nc2ccc(Cl)cc2-c2ccc(C(F)(F)F)nc2)=C(O)C1(C)C [Example 309] has what Rate of uptake inhibition (%) (1 µM)?
68%

* * *

Reported Rate of uptake inhibition (%) (1 µM) by item:
# Test system: rat small-intestinal brush border membrane vesicles
# Assay Summary: Inhibitory effect on 33PO4 uptake into rat small-intestinal brush border membrane vesicles (rapid filtration method)
# Type: biochemical, Wistar female rat
# Run Conditions: 1 µM test compound; 33PO4 uptake into rat small-intestinal BBMVs, 60 seconds
Respond with the bare value in %.

C[C@@]12CCCN1N(Cc1ccc(OCCN3CCOCC3)c(F)c1F)C(=O)C(C(=O)Nc1ccc(Cl)cc1-c1cc(C(F)(F)F)ncn1)=C2O.Cl: 54
C[C@]12CCCN1N(Cc1cccc(F)c1F)C(=O)C(C(=O)Nc1cc(F)c(Br)c(F)c1)=C2O: 75
CN1N(Cc2cccc(F)c2F)C(=O)C(C(=O)Nc2cc(F)c(Br)c(F)c2)=C(O)C12CCC2: 71
CN(C[C@H](O)[C@@H](O)[C@H](O)[C@H](O)CO)C(=O)COCCOCCOCCOCCOc1ccc(CN2C(=O)C(C(=O)Nc3ccc(C(F)(F)F)cc3-c3cc(C(F)(F)F)ncn3)=C(O)C3(CCCC3)N2C)c(F)c1F: 22

Entry C[C@]12CCCN1N(Cc1ccc(F)c(Br)c1)C(=O)C(C(=O)Nc1ccc(C(F)(F)F)cc1-c1cc(C(F)(F)F)ncn1)=C2O has what Rate of uptake inhibition (%) (1 µM)?
79

Entry CN1N(Cc2ccc(OCCN3CCN(CCOCCO)CC3)c(F)c2F)C(=O)C(C(=O)Nc2ccc(C(F)(F)F)cc2-c2cc(C(F)(F)F)ncn2)=C(O)C12CCC2 has what Rate of uptake inhibition (%) (1 µM)?
20

Data credit: patent EP2975030B1
